# IC50 per record follows
target: CYP3A4 (CYP3A) (Homo sapiens, UniProt P08684); assay: in vitro; details: microsomes, pH 7.4;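 further: inhibition of CYP3A-mediated 1-hydroxymidazolam formation after 10 min incubation with NADPH, quantified by HPLC MS relative to metabolite produced without test compound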
Sequence (P08684 2-503): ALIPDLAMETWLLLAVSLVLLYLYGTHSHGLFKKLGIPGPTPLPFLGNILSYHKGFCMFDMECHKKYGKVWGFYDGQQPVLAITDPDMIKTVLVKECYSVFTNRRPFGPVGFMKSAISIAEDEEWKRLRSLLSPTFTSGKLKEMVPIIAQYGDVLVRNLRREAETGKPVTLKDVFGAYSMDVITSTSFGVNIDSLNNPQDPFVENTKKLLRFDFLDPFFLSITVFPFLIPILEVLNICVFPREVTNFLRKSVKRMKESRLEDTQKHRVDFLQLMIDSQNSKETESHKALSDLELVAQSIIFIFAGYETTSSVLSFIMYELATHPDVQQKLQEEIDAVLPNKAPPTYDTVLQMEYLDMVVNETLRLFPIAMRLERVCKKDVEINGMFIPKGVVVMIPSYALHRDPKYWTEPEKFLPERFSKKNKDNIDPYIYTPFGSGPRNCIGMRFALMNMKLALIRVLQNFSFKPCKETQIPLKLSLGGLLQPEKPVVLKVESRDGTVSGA
Use nM as the unit, but write only the number.

IC50 for COCC(=O)N[C@@H](Cc1ccccc1)[C@H](O)CN[C@H]1CC2(CCC2)Oc2c1cc(CC(C)C)cc2-n1ccnc1 [compound 546] is 100

IC50 for COCC(=O)N[C@@H](Cc1cc(-c2nccs2)cc(-c2nccs2)c1)[C@H](O)CN[C@H]1CC2(CCC2)Oc2ncc(CC(C)(C)C)cc21 [compound 839] is 100

IC50 for COCC(=O)N[C@@H](Cc1cc(F)cc(-c2nccs2)c1)[C@H](O)CN[C@@]1(C)CC2(CCC2)Oc2ncc(CC(C)(C)C)cc21 [compound 866] is 200

IC50 for COCC(=O)N[C@@H](Cc1cc(F)cc(-c2nccs2)c1)[C@H](O)CN[C@H]1CC2(CCC2)Oc2ncc([C@@H]3CC3(C)C)cc21 [Example 773] is 300

====

assay: Microsomal stability assay, human liver microsomes; conditions: human liver microsomal data;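 further: pooled human liver microsomes at 0.25 mg/mL with 1 µM compound and NADPH at 37 °C, pH 7.4, for 30 min, unchanged parent quantified by LC-MS/MS against the 0 min sample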
# HLM per record follows
Use µL/min/mg as the unit, but write only the number.

>>> test_value("COCC(=O)N[C@@H](Cc1cccc(-c2ncco2)c1)[C@H](O)CN[C@H]1CC2(CCC2)Oc2ncc(CC(C)C)cc21")
61
>>> test_value("CC(C)(C)Cc1cnc2c(c1)[C@@H](NC[C@@H](O)[C@H](Cc1ccc(F)cc1)NC(=O)[C@H]1CN(Cc3cscn3)CCO1)CC1(CCC1)O2")
111
>>> test_value("COCC(=O)N[C@@H](Cc1cccc(C(C)=O)c1)[C@H](O)CN[C@H]1CC2(CCC2)Oc2ncc(CC(C)(C)C)cc21")
382
>>> test_value("CO[C@H](C)C(=O)N[C@@H](Cc1ccc2c(c1)OCO2)[C@H](O)CN[C@@H]1c2cc(CC(C)(C)C)cnc2OC2(CCC2)[C@@H]1F")
63
>>> test_value("C#Cc1cc(C[C@H](NC(=O)COCC)[C@H](O)CN[C@H]2CC3(CCC3)Oc3ncc(CC(C)(C)C)cc32)ccc1F")
29
>>> test_value("COCC(=O)N[C@@H](Cc1ccc2c(c1)OCO2)[C@H](O)CN[C@H]1CC2(CCC2)Oc2ccc(C[C@@H](C)F)cc21 [compound 498]")
119
>>> test_value("CC(C)Cc1cnc2c(c1)[C@@H](NC[C@@H](O)[C@H](Cc1ccc3c(c1)OCO3)NC(=O)[C@@H]1CCCO1)CC1(CCC1)O2")
57
>>> test_value("CO[C@H](C)C(=O)N[C@@H](Cc1cccc(F)c1)[C@H](O)CN[C@@H]1CC2(CCC2)Oc2c1cc(CC(C)(C)C)nc2-n1ccnc1")
86
>>> test_value("COCC(=O)N[C@@H](Cc1cccc([C@@H]2CCCO2)c1)[C@H](O)CN[C@H]1CC2(CCC2)Oc2ncc(CC(C)(C)C)cc21")
921
>>> test_value("CO[C@@H](C)C(=O)N[C@@H](Cc1ccc2c(c1)OCO2)[C@H](O)CN[C@H]1CC2(CCC2)Oc2ccc(C[C@@H](C)F)cc21")
156

HLM for CO[C@H](C)C(=O)N[C@@H](Cc1cccc(F)c1)[C@H](O)CN[C@H]1CC2(CCC2)Oc2c1cc(CC(C)C)cc2-n1ccnc1 is 27

HLM for CCCc1cnc2c(c1)[C@@H](NC[C@H](O)[C@@H](Cc1cc(F)cc(-c3nccs3)c1)NC(=O)[C@@H](C)OC)CC1(CCC1)O2 is 204

HLM for CC(=O)C(C)(C)C(=O)N[C@@H](Cc1ccc2c(c1)OCO2)[C@H](O)CN[C@H]1CC2(CCC2)Oc2ncc(CC(C)(C)C)cc21 is 44

HLM for C#Cc1cc(F)cc(C[C@H](NC(=O)[C@@H](C)OC)[C@H](O)CN[C@H]2CC3(CCC3)Oc3ncc(CC(C)(C)C)cc32)c1 is 37

HLM for COCC(=O)N[C@@H](Cc1cccc(F)c1)[C@H](O)CN[C@H]1CC2(CCC2)Oc2c(-c3ccncc3)cc(CC(C)(C)C)cc21 is 49

HLM for CC(=O)C(C)(C)C(=O)N[C@@H](Cc1cccc(F)c1)[C@H](O)CN[C@H]1CC2(CCC2)Oc2ncc(CC(C)(C)C)cc21 is 399

====

# IC50 per record follows
system: Aβ40 in conditioned medium of cells stably expressing Amyloid Precursor Protein (APP); assay: In vitro BACE cell-based assay (Aβ40 in conditioned medium, sandwich ELISA); details: Homo sapiens, HEK293, HEK cell-based assay IC50; read-out: HEK cell assay;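 further: compounds added as a dilution series, secreted peptide quantified by europium time-resolved fluorescence readout, potency fitted from percent of control versus compound concentration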
Use nM as the unit, but write only the number.

Examples with answers:
>>> test_value("COCC(=O)N[C@@H](Cc1cc(F)cc(F)c1)[C@H](O)CN[C@H]1CC2(CCC2)Oc2c1cc(C1CC1)cc2-n1ccnc1")
20
>>> test_value("CC(=O)N[C@@H](Cc1cc(F)cc(F)c1)[C@H](O)CN[C@H]1CC(C)(C)N2CCOc3cc(CC(C)(C)C)cc1c32")
178

Next:
Measured on Aβ40 in conditioned medium of cells stably expressing Amyloid Precursor Protein (APP), COCC(=O)N[C@@H](Cc1ccc2c(c1)OCO2)[C@H](O)CN[C@H]1CC2(CCC2)Oc2c1cc(CC(C)C)nc2-c1ccncc1 has a documented IC50 of 87

====

experiment: Microsomal stability assay, rat liver microsomes; conditions: rat liver microsomal data;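 further: rat liver microsomes (0.25 mg/mL) with about 1 µM compound plus 1 mM NADPH, pH 7.4, 37 °C for 30 min, parent left measured by LC-MS/MS against 0 min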
# RLM per record follows
Use µL/min/mg as the unit, but write only the number.

>>> test_value("C#Cc1cc(F)cc(C[C@H](NC(=O)[C@@H](C)OC)[C@H](O)CN[C@H]2CC3(CCC3)Oc3ncc(CC(C)(C)C)cc32)c1")
98
>>> test_value("COCC(=O)N[C@@H](Cc1cccc(F)c1)[C@H](O)CN[C@H]1CC2(CCC2)Oc2c1cc([C@H](n1ccnc1)C(C)(C)C)cc2-n1ccnc1")
40

Next:
RLM for CO[C@H](C)C(=O)N[C@@H](Cc1cccc(F)c1)[C@H](O)CN[C@H]1CC2(CCC2)Oc2c1cc(CC(C)(C)C)nc2-n1ccnc1 is 95

====

biological target: Beta Secretase enzyme (BACE) (Homo sapiens, UniProt P56817); test: In vitro enzymatic BACE FRET (fluorescence resonance energy transfer) assay; type: biochemical; conditions: Table 1; read-out: BACE1 FRET assay
Sequence (P56817 46-501): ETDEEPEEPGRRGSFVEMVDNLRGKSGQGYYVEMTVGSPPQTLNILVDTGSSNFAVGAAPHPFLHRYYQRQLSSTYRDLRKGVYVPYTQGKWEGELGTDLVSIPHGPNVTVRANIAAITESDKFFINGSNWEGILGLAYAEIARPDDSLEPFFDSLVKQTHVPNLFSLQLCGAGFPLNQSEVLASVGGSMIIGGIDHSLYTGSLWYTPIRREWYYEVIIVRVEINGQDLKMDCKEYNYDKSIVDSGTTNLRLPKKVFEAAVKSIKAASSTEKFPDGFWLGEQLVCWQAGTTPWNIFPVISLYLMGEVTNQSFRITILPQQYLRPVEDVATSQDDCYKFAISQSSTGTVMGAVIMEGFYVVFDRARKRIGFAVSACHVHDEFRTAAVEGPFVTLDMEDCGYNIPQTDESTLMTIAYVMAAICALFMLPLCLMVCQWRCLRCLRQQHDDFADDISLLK
# pIC50 per record follows
When answering, recall that pIC50 equals minus log10 of the concentration in mol/L, and write that number alone.

Examples with answers:
>>> test_value("CO[C@@H](C)C(=O)N[C@@H](Cc1cccc(F)c1)[C@H](O)CN[C@H]1CC2(CCC2)Oc2ncc(CC(C)(C)C)cc21")
8.18
>>> test_value("CC(=O)N[C@@H](Cc1cccc(F)c1)[C@H](O)CN[C@H]1CC2(CCC2)Oc2ncc([C@@H](F)[C@H](C)C(F)(F)F)cc21")
6.44
>>> test_value("CC(=O)N[C@@H](Cc1cccc(F)c1)[C@H](O)CN[C@H]1CC2(CCC2)Oc2ncc([C@H](F)[C@H](C)C(F)(F)F)cc21")
7.96
>>> test_value("CO[C@H](C)C(=O)N[C@@H](Cc1cccc(C#N)c1)[C@H](O)CN[C@H]1CC2(CCC2)Oc2ncc(CC(F)(F)F)cc21")
7.58

pIC50 for COCC(=O)N[C@@H](Cc1cc(F)cc(F)c1)[C@H](O)CN[C@H]1CC2(CCC2)Oc2ncc(CC(F)(F)F)cc21 is 8.16

pIC50 for COCC(=O)N[C@@H](Cc1cccc(F)c1)[C@H](O)CN[C@H]1CC2(CCC2)Oc2ncc(CC(F)(F)F)cc21 is 8.04

pIC50 for CO[C@H](C)C(=O)N[C@@H](Cc1ccc2c(c1)OCO2)[C@H](O)CN[C@H]1CC2(CCC2)Oc2ncc(CC(C)(C)C(F)(F)F)cc21 is 7.31

pIC50 for COCC(=O)N[C@@H](Cc1cccc(F)c1)[C@H](O)CN[C@H]1CC2(CCC2)Oc2ncc(C[C@@H](C)C(F)(F)F)cc21 is 8.11

pIC50 for CO[C@@H](C)C(=O)N[C@@H](Cc1ccc2c(c1)OCO2)[C@H](O)CN[C@H]1CC2(CCC2)Oc2ncc([C@H](F)C(C)(C)C)cc21 is 7.29

====

molecular target: Beta Secretase enzyme (BACE) (Homo sapiens, UniProt P56817); assay: In vitro enzymatic BACE FRET (fluorescence resonance energy transfer) assay; type: biochemical; conditions: BACE enzyme assay, IC50's in uM; read-out: BACE1 FRET assay;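 further: fluorescence read after 1 h with 50 nM quenched peptide substrate spanning the BACE cleavage site, in pH 4.2 acetate buffer containing 10% DMSO and nonionic detergent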
attribute_measured: IC50 (µM)
Use µM as the unit, but write only the number.

Examples with answers:
>>> test_value("COCC(=O)N[C@@H](Cc1cc(F)cc(F)c1)[C@H](O)CN[C@H]1CC2(CCC2)Oc2c(-c3ccncc3)cc(C3CC3)cc21")
0.031
>>> test_value("CCO[C@@H](C)C(=O)N[C@@H](Cc1ccc2c(c1)OCO2)[C@H](O)CN[C@H]1CC2(CCC2)Oc2ncc(CC(C)(C)C)cc21")
0.213
>>> test_value("C=Cc1cccc(C[C@H](NC(=O)COC)[C@H](O)CN[C@H]2CC3(CCC3)Oc3ncc(CC(C)C)cc32)c1")
0.007
>>> test_value("C#Cc1cnc2c(c1)[C@@H](NC[C@@H](O)[C@H](Cc1cc(F)cc(-c3nccs3)c1)NC(=O)COC)CC1(CCC1)O2")
0.055
>>> test_value("CCC(=O)N[C@@H](Cc1cc(F)cc(-c2nccs2)c1)[C@H](O)CN[C@H]1CC2(CCC2)Oc2ncc(CC(C)(C)C)cc21")
0.004
>>> test_value("C#Cc1cc(C[C@H](NC(=O)C(OC)OC)[C@H](O)CN[C@H]2CC3(CCC3)Oc3ncc(CC(C)(C)C)cc32)ccc1F")
0.008
>>> test_value("CO[C@H](C)C(=O)N[C@@H](Cc1cc(F)cc(Cl)c1)[C@H](O)CN[C@H]1CC2(CCC2)Oc2ccc(CC(C)C)cc21")
0.003

Next:
IC50 for C#Cc1cccc(C[C@H](NC(=O)[C@@H](C)OC)[C@H](O)CN[C@H]2CC3(CCC3)Oc3ncc(CC(C)(C)C)cc32)c1 is 0.005
